- Assay: qHTS for Inhibitors of human tyrosyl-DNA phosphodiesterase 1 (TDP1): qHTS in cells in absence of CPT; note: nearly all actives have a fitted effect of over 55% in size
- Condition label: DT40 Tdp1-/- hTDP1 cells, no CPT, ATP luminescence, 48 h
About 64,000 (15%) of roughly 420,000 compounds were called active. Not shown: some 27% with an inconclusive outcome. Calls come from the whole dose curve; as a rule, active = well fitted inhibition curve with a large enough effect; inconclusive = small, poorly fitted or top-dose-only effect; inactive = flat fitted curve, though single readings scatter. Only a sample is shown.
Respond with a class label; see active, inactive

Example entries begin here.
In: Recorded test outcome, item CC1(C)Cc2c(cnn2-c2cccc(F)c2)C(NC(=O)c2cc[n+]([O-])cc2)C1 (stereo unspecified)
Out: inactive

In: Give the logged outcome of this assay for the following compound: `CCN(CC)c1cc(NC2CCCCC2)c2c3c(onc13)-c1ccccc1C2=O`
Out: active

In: Please indicate how the test categorized `CC(=O)c1cccc(CN2CCC(CO)(Cc3ccccc3)CC2)c1` .
Out: inactive

In: Entry `O=C(O)c1cnn2c(C(F)(F)F)cc(-c3ccccc3)nc12` : call = ?
Out: inactive

Further cases:
In: I'd appreciate the recorded outcome for `CCc1ccc(-n2c(SCc3cc(=O)n4cc(Br)ccc4n3)nc3[nH]ncc3c2=O)cc1` from this test.
Out: active

In: GET /call?item= `COc1ccccc1C1=CC(=O)CCC1` returns the recorded outcome of this test.
Out: inactive

In: For this compound, state the assay outcome: `COc1ccc(CC2(CO)CCN(Cc3cnn(C)c3)CC2)cc1`
Out: inactive
